Values compiled from PubChem BioAssay (NCATS).

Assay: Cellular viability qHTS for adrenocortical cancer (ACC) cell line SW-13 (AID 1963989);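 also: cells grown in serum-free medium with ITS supplement; % is scaled to controls: 0 for no effect and ±100 for the full control effect; nearly all actives have a fitted effect of over 65% in size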
Details: SW-13 ACC cells viability, CellTiter-Glo, 48 h; active compounds read low
Results filed as inconclusive are left out. Active and inactive are the calls of the source. Calls follow the shape of the dose curve; as a rule, active = well fitted cell-killing curve with a large enough effect; inconclusive = small, poorly fitted or top-dose-only effect; inactive = flat fitted curve, though single readings scatter.
quantity: activity (max response)

> print(dat)
                                    compound              result
 1  CC(=O)Nc1ccc(OC[C@](C)(O)C(=O)Nc2ccc([N+](=O)[O-])c(C(F)(F)F)c2)cc1   0.634% (inactive)
 2  CC1(C)C(C=C(Cl)Cl)C1C(=O)OC(C#N)c1cccc(Oc2ccccc2)c1 (configuration not stated)    4.33% (inactive)
 3                              CCOCCOC(C)=O    7.41% (inactive)
 4  COc1ccc2c3c1O[C@H]1[C@H](O)CC[C@H]4[C@@H](C2)N(C)CC[C@@]341   -5.89% (inactive)
 5  COC(C)(C)CCCC(C)C/C=C/C(C)=C/C(=O)OC(C)C (configuration not stated)    12.4% (inactive)
 6                        O=c1[nH]oc2c1CCNC2     5.4% (inactive)
 7  CC[C@H]1C[C@H]2[C@@H]3CCC4=CC(=O)CC[C@@H]4[C@H]3CC[C@]2(C)[C@H]1O   -16.6% (inactive)
 8                              C1CN2CCC1CC2    2.77% (inactive)
 9                           ClCc1cccc(Cl)c1      11% (inactive)
10         CCOC(=O)Nc1ccc(NCc2ccc(F)cc2)cc1N   -1.78% (inactive)
11  CC(CC(C#N)(c1ccccc1)c1ccccc1)N(C)C (configuration not stated)     -32% (inactive)
12     CCOC(C(=O)OCCN(C)C)(c1ccccc1)c1ccccc1  -0.322% (inactive)
